- experimentalSystem: UniProt Q8VH20
- Sequence (Q8VH20 as listed by the source): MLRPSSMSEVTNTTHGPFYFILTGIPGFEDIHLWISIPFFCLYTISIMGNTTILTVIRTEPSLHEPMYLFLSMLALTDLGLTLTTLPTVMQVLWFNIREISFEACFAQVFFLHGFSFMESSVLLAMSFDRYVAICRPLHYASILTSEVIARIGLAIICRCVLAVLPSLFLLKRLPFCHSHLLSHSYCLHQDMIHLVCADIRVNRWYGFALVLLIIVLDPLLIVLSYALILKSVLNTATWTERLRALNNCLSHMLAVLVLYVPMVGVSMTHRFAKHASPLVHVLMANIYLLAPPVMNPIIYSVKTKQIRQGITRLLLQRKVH
- conditionSummary: stereoisomer not certain
Labels: 1 (active), -1 (inactive)

# compound, experimentalSystem, classAssignment
data = [
    ("CSSSC", "UniProt Q8VH20", 1),
    ("CC1(C)CC(=O)CC(=O)C1", "UniProt Q8VH20", -1),
    ("CCCO", "UniProt Q8VH20", -1),
    ("CCCCCCCCCCO", "UniProt Q8VH20", -1),
    ("CCCCCC=CCCC=O", "UniProt Q8VH20", 1),
    ("CCCCCOC(=O)CCC", "UniProt Q8VH20", -1),
    ("CCCCCC(C)O (stereo not given)", "UniProt Q8VH20", -1),
    ("CCCCCCCCOC=O", "UniProt Q8VH20", -1),
    ("C1CCOC1", "UniProt Q8VH20", -1),
    ("CCSCC", "UniProt Q8VH20", -1),
    ("CCCCC(C)=O", "UniProt Q8VH20", -1),
    ("CC=Cc1ccc(OC)cc1", "UniProt Q8VH20", -1),
    ("CC=C(C)C=O", "UniProt Q8VH20", -1),
    ("O=c1ccc2ccccc2o1", "UniProt Q8VH20", -1),
    ("CCCCCC(=O)CC", "UniProt Q8VH20", -1),
    ("CCCCCCCO", "UniProt Q8VH20", -1),
    ("CCCCC(=O)O", "UniProt Q8VH20", -1),
    ("CCSSCC", "UniProt Q8VH20", -1),
    ("CCCCCOC(=O)CC", "UniProt Q8VH20", -1),
    ("CCc1ccccc1O", "UniProt Q8VH20", -1),
]

###

- experimentalSystem: OR5M3 (Homo sapiens) (UniProt Q8NGP4)
- Sequence (Q8NGP4 whole entry): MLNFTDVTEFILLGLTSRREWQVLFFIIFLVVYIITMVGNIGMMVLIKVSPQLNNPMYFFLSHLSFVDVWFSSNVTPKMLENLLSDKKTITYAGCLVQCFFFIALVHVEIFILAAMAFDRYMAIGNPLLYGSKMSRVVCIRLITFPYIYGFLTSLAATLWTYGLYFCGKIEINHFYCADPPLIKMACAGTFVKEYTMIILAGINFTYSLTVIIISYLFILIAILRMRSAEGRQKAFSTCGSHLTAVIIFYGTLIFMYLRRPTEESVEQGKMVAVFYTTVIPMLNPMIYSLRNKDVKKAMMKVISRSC
- conditionSummary: stereoisomer not certain

# compound, odorant receptor agonist call
data = [
    ("CCC=CCC=O", "inactive"),
    ("CCc1ncc(C)nc1CC", "inactive"),
    ("CSCCC=O", "inactive"),
    ("CCC(=O)O", "inactive"),
    ("CCCCCC(S)C(C)CO (stereo not drawn)", "inactive"),
    ("CC(=O)c1cnccn1", "inactive"),
    ("CCOC(=O)C1CCCCC1", "inactive"),
    ("CCCCC1OC(=O)CC1C (stereo not drawn)", "inactive"),
    ("CCOC(=O)C(C)CC (stereo not drawn)", "inactive"),
    ("CCCC(=O)OC", "inactive"),
    ("CCCCCCCCC1CCC(=O)O1 (stereo not drawn)", "inactive"),
    ("Cc1c[nH]c2ccccc12", "inactive"),
    ("CC(=O)OCCC(C)C", "inactive"),
    ("COC(=O)C=Cc1ccccc1", "inactive"),
    ("C=C1CCC2CC1C2(C)C (stereo not drawn)", "inactive"),
    ("COc1ccc2ccc(=O)oc2c1", "inactive"),
    ("CC=Cc1ccc(OC)cc1", "inactive"),
    ("CCC=O", "inactive"),
    ("CSC", "inactive"),
    ("CCOC(=O)CCC(C)C", "inactive"),
    ("CC(=O)C=CC1=C(C)CCCC1(C)C", "inactive"),
    ("CCCC(=O)C(C)CC (stereo not drawn)", "inactive"),
    ("C=CCSC", "inactive"),
    ("CCc1cccc(O)c1", "inactive"),
    ("CCC(C)CO (stereo not drawn)", "inactive"),
    ("CCC1OC(=O)C(O)=C1C (stereo not drawn)", "inactive"),
    ("CC(=O)C(C)O (stereo not drawn)", "inactive"),
    ("CCOC(=O)CCSC", "inactive"),
    ("Cc1cnc(C)c(C)n1", "inactive"),
    ("CCCCCCCC(=O)[O-].[H+]", "inactive"),
    ("Cc1cccc(O)c1", "inactive"),
    ("CCCCCc1ccccn1", "inactive"),
    ("CCCCCC(=O)OCC", "inactive"),
    ("COc1nccnc1C(C)C", "inactive"),
    ("CCC(=O)C1=NCCC1", "inactive"),
    ("CCC(=O)C(C)S (stereo not drawn)", "inactive"),
    ("C=C(C)C1CC=C(C)CC1 (stereo not drawn)", "inactive"),
    ("CCCCC(S)C(C)CO (stereo not drawn)", "inactive"),
]

###

- experimentalSystem: UniProt Q8VH21
- Sequence (whole entry): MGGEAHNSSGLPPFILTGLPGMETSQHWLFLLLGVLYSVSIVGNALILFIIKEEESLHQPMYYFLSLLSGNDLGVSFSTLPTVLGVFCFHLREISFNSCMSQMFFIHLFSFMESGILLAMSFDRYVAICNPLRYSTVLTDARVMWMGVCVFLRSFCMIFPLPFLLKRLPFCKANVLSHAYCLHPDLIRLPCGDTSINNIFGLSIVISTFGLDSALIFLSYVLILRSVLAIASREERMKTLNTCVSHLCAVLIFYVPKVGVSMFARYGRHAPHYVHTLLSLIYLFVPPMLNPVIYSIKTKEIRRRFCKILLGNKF
- conditionSummary: stereoisomer not certain
Outcome codes: active, inactive

# compound, experimentalSystem, classAssignment
records = [
    ("CCCCCC(C)O (stereo not drawn)", "UniProt Q8VH21", "inactive"),
    ("CC(C)=CCCC(C)=CCO", "UniProt Q8VH21", "inactive"),
    ("CC(C)CS", "UniProt Q8VH21", "inactive"),
    ("O=C([O-])CCCCCCC(=O)[O-].[H+].[H+]", "UniProt Q8VH21", "inactive"),
    ("O=C(O)CCCCCCCCC(=O)O", "UniProt Q8VH21", "inactive"),
    ("CCCCCOC(=O)CC", "UniProt Q8VH21", "inactive"),
    ("Cc1occc1SSc1ccoc1C", "UniProt Q8VH21", "inactive"),
    ("CCCCCOC(=O)CCC", "UniProt Q8VH21", "inactive"),
    ("CCc1ccccc1O", "UniProt Q8VH21", "inactive"),
    ("O=C([O-])CCCCCCCC(=O)[O-].[H+].[H+]", "UniProt Q8VH21", "inactive"),
    ("CCSSCC", "UniProt Q8VH21", "inactive"),
    ("Cc1ccccc1OC(=O)C(C)C", "UniProt Q8VH21", "inactive"),
    ("CCCCCCCCS", "UniProt Q8VH21", "inactive"),
    ("C=CC(=C)CCC=C(C)C", "UniProt Q8VH21", "inactive"),
    ("CCN(CC)CC", "UniProt Q8VH21", "inactive"),
    ("CCOC(=O)CC(C)C", "UniProt Q8VH21", "inactive"),
    ("CC(C)=CCCC(C)CCO (stereo not drawn)", "UniProt Q8VH21", "inactive"),
    ("CCCCCOC(=O)CCCCC", "UniProt Q8VH21", "inactive"),
    ("Cc1ccc(OC(=O)C(C)C)cc1", "UniProt Q8VH21", "inactive"),
    ("COC(OC)c1ccccc1", "UniProt Q8VH21", "inactive"),
    ("O=C(O)C1CCC1", "UniProt Q8VH21", "active"),
    ("C=C(C)C1CC=C(C)CC1 (stereo not drawn)", "UniProt Q8VH21", "inactive"),
    ("Cc1ccc2c(c1)OCC(=O)CO2", "UniProt Q8VH21", "inactive"),
    ("CCCCCCC(C)O (stereo not drawn)", "UniProt Q8VH21", "inactive"),
    ("CCCCCCCCCS", "UniProt Q8VH21", "inactive"),
    ("c1ccc2ncccc2c1", "UniProt Q8VH21", "inactive"),
    ("CCCCCCC(=O)OCCCC", "UniProt Q8VH21", "inactive"),
    ("CCCCCC=O", "UniProt Q8VH21", "inactive"),
    ("CC=C(C)C=O", "UniProt Q8VH21", "active"),
    ("CCCCCCCCCC=CC=O", "UniProt Q8VH21", "inactive"),
    ("CCCCOC=O", "UniProt Q8VH21", "inactive"),
    ("CC(=O)Oc1ccccc1", "UniProt Q8VH21", "inactive"),
    ("CCCCCCCCC(=O)O", "UniProt Q8VH21", "inactive"),
    ("CCCCC(C)=O", "UniProt Q8VH21", "inactive"),
    ("CCCCCC(=O)CC", "UniProt Q8VH21", "inactive"),
    ("COc1nccnc1C(C)C", "UniProt Q8VH21", "inactive"),
    ("C=CC(=C)CCC=C(C)CCC=C(C)C", "UniProt Q8VH21", "inactive"),
    ("OCC=Cc1ccccc1", "UniProt Q8VH21", "inactive"),
]
